System: PPARg homodimer (NR concentration 180 nM)
Experiment: PBM binding z-score (relative to random genomic background probes); higher = stronger binding; sequences stand for … in GC…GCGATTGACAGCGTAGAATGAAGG
Entries are sorted into classes by PBM binding z-score as follows: bucket 1: < 0.6; bucket 2: ≥ 0.6 and < 2; bucket 3: ≥ 2

{"columns": ["chain", "label-class"],
 "data": [
  ["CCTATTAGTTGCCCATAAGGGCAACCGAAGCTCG", "bucket 2"],
  ["GCTCGGAGGACAAGGTCAGTGCTTTGTCCGTAGA", "bucket 2"],
  ["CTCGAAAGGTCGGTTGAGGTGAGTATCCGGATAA", "bucket 2"],
  ["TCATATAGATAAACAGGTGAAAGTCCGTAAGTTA", "bucket 2"],
  ["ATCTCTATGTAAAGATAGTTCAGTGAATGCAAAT", "bucket 1"],
  ["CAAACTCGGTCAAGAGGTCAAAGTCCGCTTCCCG", "bucket 3"],
  ["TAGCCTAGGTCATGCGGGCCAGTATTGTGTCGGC", "bucket 1"],
  ["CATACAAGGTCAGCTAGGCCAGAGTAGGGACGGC", "bucket 3"],
  ["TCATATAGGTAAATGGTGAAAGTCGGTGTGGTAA", "bucket 2"],
  ["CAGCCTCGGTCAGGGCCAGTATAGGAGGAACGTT", "bucket 1"],
  ["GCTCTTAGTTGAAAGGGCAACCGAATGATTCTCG", "bucket 2"],
  ["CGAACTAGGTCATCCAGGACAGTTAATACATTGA", "bucket 3"],
  ["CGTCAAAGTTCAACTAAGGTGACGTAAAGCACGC", "bucket 3"],
  ["CAGACTAGGTCACGAAAGGTCAAAGTCGAATGAC", "bucket 3"],
  ["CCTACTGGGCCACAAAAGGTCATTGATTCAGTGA", "bucket 3"],
  ["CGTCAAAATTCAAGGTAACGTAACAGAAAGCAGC", "bucket 1"],
  ["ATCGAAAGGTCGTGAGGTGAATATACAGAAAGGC", "bucket 3"],
  ["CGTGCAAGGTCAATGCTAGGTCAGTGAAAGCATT", "bucket 3"],
  ["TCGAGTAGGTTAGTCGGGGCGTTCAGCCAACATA", "bucket 1"],
  ["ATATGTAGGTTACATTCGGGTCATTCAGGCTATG", "bucket 3"],
  ["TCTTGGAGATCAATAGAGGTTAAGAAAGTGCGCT", "bucket 1"],
  ["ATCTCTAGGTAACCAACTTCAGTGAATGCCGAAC", "bucket 1"]
]}
